Values were extracted from patent EP4631938A1.

# assay-target: human recombinant 5-HT2A receptor (Homo sapiens)
# Construct: expressed in transfected cells; host or cells: Jump-In HEK cells (membrane preparation)
# Sequence (P28223 whole entry): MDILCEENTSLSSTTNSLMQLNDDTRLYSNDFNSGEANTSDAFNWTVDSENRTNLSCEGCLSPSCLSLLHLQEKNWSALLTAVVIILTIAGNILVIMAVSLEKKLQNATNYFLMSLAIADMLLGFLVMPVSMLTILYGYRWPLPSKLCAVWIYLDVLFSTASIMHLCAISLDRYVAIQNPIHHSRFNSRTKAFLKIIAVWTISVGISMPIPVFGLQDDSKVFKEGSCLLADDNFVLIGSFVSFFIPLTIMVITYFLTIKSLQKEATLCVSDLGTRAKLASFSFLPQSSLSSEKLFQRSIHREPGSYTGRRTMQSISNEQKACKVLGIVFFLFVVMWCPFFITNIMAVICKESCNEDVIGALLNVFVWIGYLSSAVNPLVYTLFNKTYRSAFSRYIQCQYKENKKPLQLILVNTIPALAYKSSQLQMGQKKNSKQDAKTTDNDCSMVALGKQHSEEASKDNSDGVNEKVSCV
# experiment-summary: Test Example 1-2: 5-HT2A receptor binding inhibition test ([3H]-Ketanserin; non-specific ligand Ketanserin)
# recorded-conditions: [3H]-Ketanserin; non-specific binding with 500 µmol/L Ketanserin; room temperature (25°C), 1.5 hours; read-out: h 5-HT2A Ki
recorded-metric: Ki (nM)

Would you please look over these solved cases?
>>> reported_result("Cn1cnc(F)c1-c1cc(Nc2ncc(C(F)(F)F)cc2F)ccc1OCCO")
0.409
>>> reported_result("Cn1ncc(Br)c1-c1nc(Nc2ccc(Cl)c(F)c2)ncc1OCCO")
0.257
>>> reported_result("Cn1ncc(Br)c1-c1cc(Nc2ncc(F)cc2F)c(F)cc1OCCO")
0.332
>>> reported_result("Cn1ncc(C#N)c1-c1cc(Nc2ncc(C(F)(F)F)cc2F)cnc1OCCO")
0.241
>>> reported_result("COCc1nc(C)c(-c2cc(Nc3ncc(-n4ccc(C(F)(F)F)n4)cc3Cl)ncc2OCCO)c(C)n1")
1.6

A. Cn1ncc(Br)c1-c1cc(Nc2ccc(Cl)cn2)ccc1OCCO
B. COCc1nc(C)c(-c2cc(Nc3ncc(-c4cccc(C#N)c4)cc3Cl)ncc2OCCO)c(C)n1
Task: Out of A and B , name the one with the higher Ki. # answer = label of selected item
Result: B
(B: 2.05 nM, A: 0.203 nM)

I. Cn1ncc(Br)c1-c1nc(Nc2ccc(Cl)cc2F)ncc1OCCO
II. CCCc1nc(C)c(-c2cc(Nc3ncc(C(F)(F)F)cc3Cl)ncc2OCCO)c(C)n1
Task: Hey, between I and II which has a smaller measured Ki? # answer = label of selected item
Result: I

a. O=C1NCc2c1cncc2-c1cc(Nc2ncc(C(F)(F)F)cc2F)ncc1OCCO
b. Cn1ncc(Br)c1-c1cc(Nc2ncc(OC(F)F)cc2F)ncc1OCCO
c. COCc1nc(C)c(-c2nc(Nc3ccc(C(F)(F)F)c(OC)n3)c(F)cc2OCCO)c(C)n1
d. COCc1nc(C)c(-c2nc(Nc3cc(-c4ccccc4)no3)c(F)cc2OCCO)c(C)n1
Task: Rank ascending by Ki. Form field (ranking): labels in requested order.
Result: b, c, a, d
(b: 0.271 nM, c: 1.34 nM, a: 2.13 nM, d: 17.6 nM)

P. Cn1ncc(Br)c1-c1cc(Nc2cc(C(F)(F)F)c(Cl)cn2)ncc1OCCO
Q. COCc1nc(C)c(-c2cc(Nc3ncc(-n4ccc(Cl)n4)cc3Cl)ncc2OCCO)c(C)n1
R. COCc1nc(C)c(-c2cc(Nc3ncc(-c4ncc(F)cc4F)cc3Cl)ncc2OCCO)c(C)n1
S. Cc1nc(C)c(-c2cc(Nc3ncc(Cl)cc3F)ccc2OCCO)c(C)n1
Task: Ranking field: Ki; order: falling. Form field (ranking): labels in requested order.
Result: R, Q, S, P

---

# assay-target: human recombinant 5-HT2C receptor (Homo sapiens, UniProt P28335)
# Construct: expressed in transfected cells; host or cells: Jump-In HEK cells (membrane preparation)
# Sequence (P28335 33-458): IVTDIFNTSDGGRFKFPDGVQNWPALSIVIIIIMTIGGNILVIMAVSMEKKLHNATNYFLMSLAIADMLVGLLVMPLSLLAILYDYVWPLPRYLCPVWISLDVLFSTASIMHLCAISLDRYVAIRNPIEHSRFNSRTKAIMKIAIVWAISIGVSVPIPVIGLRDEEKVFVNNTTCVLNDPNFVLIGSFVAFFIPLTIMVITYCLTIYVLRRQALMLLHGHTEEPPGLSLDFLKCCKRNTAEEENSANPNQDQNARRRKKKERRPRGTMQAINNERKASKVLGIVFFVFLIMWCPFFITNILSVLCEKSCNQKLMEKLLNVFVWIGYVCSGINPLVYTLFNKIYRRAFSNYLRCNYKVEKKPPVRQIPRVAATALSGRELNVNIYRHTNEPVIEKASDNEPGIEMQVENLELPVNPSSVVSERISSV
# experiment-summary: Test Example 2: 5-HT2C receptor binding inhibition test ([3H]-Mesulergine; non-specific ligand Serotonin HCl)
# recorded-conditions: [3H]-Mesulergine; non-specific binding with 500 µmol/L Serotonin HCl; 37°C, 2 hours
pKi: −log10 of the molar value.
recorded-metric: pKi

>>> reported_result("Cc1cnn(C)c1-c1cc(Nc2ncc(C(F)(F)F)cc2F)ccc1OCCO")
8.98

P. Cn1ncc(Br)c1-c1cc(Nc2ccc(C(F)(F)F)cn2)ccc1OCCO
Q. Cn1ncc(Br)c1-c1cc(Nc2ncc(C(F)(F)F)s2)ccc1OCCO
R. Cn1ncc(Br)c1-c1cc(Nc2ccc(C(F)(F)F)nn2)ccc1OCCO
Task: Ranking field: pKi; order: falling. Form field (ranking): labels in requested order.
Result: P, Q, R
